These measurements were taken from ChEMBL document CHEMBL1150783.

MIC50 values by entry
System: Staphylococcus aureus
Experiment: Antibacterial activity against methicillin-resistant Staphylococcus aureus by CLSI dilution method
Format: functional

compound | unit-of-measurement | qualifying-sign | MIC50
CC(=O)NC[C@H]1CN(c2ccc(N3CCOCC3)c(F)c2)C(=O)O1 [LINEZOLID] | µg/mL | = | 2
Cc1c(N)cccc1Cn1ccc(OCCc2cccs2)cc1=O [CG-400549] | µg/mL | = | 0.5
CC[C@H]1OC(=O)[C@H](C)[C@@H](O[C@H]2C[C@@](C)(OC)[C@@H](O)[C@H](C)O2)[C@H](C)[C@@H](O[C@@H]2O[C@H](C)C[C@H](N(C)C)[C@H]2O)[C@](C)(O)C[C@@H](C)C(=O)[C@H](C)[C@@H](O)[C@]1(C)O [ERYTHROMYCIN] | µg/mL | > | 128
Cc1onc(-c2ccccc2)c1C(=O)N[C@@H]1C(=O)N2[C@@H]1SC(C)(C)[C@@H]2C(=O)O [OXACILLIN] | µg/mL | > | 128
CN(C)[C@@H]1C(O)=C(C(N)=O)C(=O)[C@@]2(O)C(O)=C3C(=O)c4c(O)cccc4[C@@](C)(O)[C@H]3C[C@@H]12 [TETRACYCLINE] | µg/mL | = | 64
CCC[C@@H]1C[C@@H](C(=O)N[C@@H]([C@H]2O[C@H](SC)[C@H](O)[C@@H](O)[C@H]2O)[C@H](C)Cl)N(C)C1 [CLINDAMYCIN] | µg/mL | > | 128
C[C@H]1COc2c(N3CCN(C)CC3)c(F)cc3c(=O)c(C(=O)O)cn1c23.C[C@H]1COc2c(N3CCN(C)CC3)c(F)cc3c(=O)c(C(=O)O)cn1c23.O [LEVOFLOXACIN] | µg/mL | = | 16
CN[C@H](CC(C)C)C(=O)N[C@H]1C(=O)N[C@@H](CC(N)=O)C(=O)N[C@H]2C(=O)N[C@H]3C(=O)N[C@H](C(=O)N[C@H](C(=O)O)c4cc(O)cc(O)c4-c4cc3ccc4O)[C@H](O)c3ccc(c(Cl)c3)Oc3cc2cc(c3O[C@@H]2O[C@H](CO)[C@@H](O)[C@H](O)[C@H]2O[C@H]2C[C@](C)(N)[C@H](O)[C@H](C)O2)Oc2ccc(cc2Cl)[C@H]1O [VANCOMYCIN] | µg/mL | = | 1
